Test system: HLA-A2::Mart-1(26-35) reactive T cells stimulated by T2 cells
Experiment: T cell activation time course assay, IFNγ production (FACS), Mart-1 epitope
Format: cell-based
Details: peptide 0.5 pM, time point 0H (basal)
quantity: Geometric mean IFN-γ in arbitrary fluorescence units 0H

See these solved cases before continuing.
{"columns": ["substance", "result"],
 "data": [
  ["[am-phg][NVA]AGIGILT[ALG]", "112 arbitrary fluorescence units"],
  ["[am-phg][NVA]AGIGILT[PRG]", "141 arbitrary fluorescence units"],
  ["[am-phg][2-AOC]AGIGILT[PRG]", "104 arbitrary fluorescence units"],
  ["[CSME][2-AOC]AGIGILTV", "101 arbitrary fluorescence units"]
]}

Kindly consider the entry below.
Recorded Geometric mean IFN-γ in arbitrary fluorescence units 0H of [am-phg]LAGIGILT[PRG] , please.
94 arbitrary fluorescence units

====

Tested on: CD8+ T cells from Influenza A positive donors sorted using tetramers containing HLA A2.1::[…]
Assay type: cell-based
Where no end group is shown, it is not given here. BUTALA = not defined here; PHG = not defined here
The substances listed here are annotated with their % CD8+ T cells producing IFN-γ % IFN.
The response must be a number in % with no trailing unit.

See these solved cases before continuing.
{"columns": ["substance", "% CD8+ T cells producing IFN-γ % IFN [%]"],
 "data": [
  ["[PHG][NLE]LGFVFTL", 2.7],
  ["[PHG][BUTALA]LGFVFTL ({PHG-BUTALA}-LGFVFTL; reading uncertain)", 2.5],
  ["[am-phg][CpALA]LGFVFTL", 2.2]
]}

Recorded % CD8+ T cells producing IFN-γ % IFN of [am-phg][BUTALA]LGFV[4-FPHE]TL , please.
2.6

Recorded % CD8+ T cells producing IFN-γ % IFN of [am-phg][BUTALA]LGFVFTL , please.
2.8

Recorded % CD8+ T cells producing IFN-γ % IFN of [PHG]I[NLE]GFVFTL , please.
2.9

====

Molecular target: HLA-A0201 (Homo sapiens, UniProt P04439, D140Y/D185E/D98H/E176V/E277Q/G131W/G231S/I119V/I121R/I166T/I218V/L300P/L318F/N151K/N90K/P208A/P217A/Q86G/Q94H/R138H/R169H/T345S)
Assay type: binding
quantity: % inhibition at T=4H and T=24H FP 4h (%)
The response must be a number in % with no trailing unit.

See these solved cases before continuing.
{"columns": ["substance", "% inhibition at T=4H and T=24H FP 4h, %"],
 "data": [
  ["[am-phg][NVA]AGIGILT[ALG]", 58],
  ["[CSME][2-AOC]YDFFVWL", 88],
  ["[am-phg][BUTALA]LGFV[4-FPHE]TL", 83],
  ["[CSME][NVA]AGIGILT[PRG]", 63],
  ["[PHG][CpALA]YDFFVWL", 77]
]}

Recorded % inhibition at T=4H and T=24H FP 4h of [am-phg][2-AOC]AGIGILT[PRG] , please.
80

Recorded % inhibition at T=4H and T=24H FP 4h of [am-phg][2-AOC]YDFFVW[ALG] , please.
73

Recorded % inhibition at T=4H and T=24H FP 4h of [CSME][NVA]YDFFVW[PRG] , please.
78
